# test_system: B-Raf kinase (SEQ. ID NO: 2) (Homo sapiens (Human))
# Sequence (P15056 416-766): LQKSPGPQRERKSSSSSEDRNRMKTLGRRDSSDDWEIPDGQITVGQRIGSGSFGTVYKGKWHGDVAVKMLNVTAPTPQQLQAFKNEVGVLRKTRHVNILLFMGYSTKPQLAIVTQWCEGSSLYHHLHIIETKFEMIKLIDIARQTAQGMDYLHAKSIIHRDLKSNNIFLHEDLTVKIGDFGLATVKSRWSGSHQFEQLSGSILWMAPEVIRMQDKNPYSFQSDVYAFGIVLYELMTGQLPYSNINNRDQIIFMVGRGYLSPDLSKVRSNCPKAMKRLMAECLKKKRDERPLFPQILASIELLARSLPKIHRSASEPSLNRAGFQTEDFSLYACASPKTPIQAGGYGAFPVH
# measurement_description: Biochemical Assay for B-Raf (1)
# run_parameters: Table J, assay version (1); read-out: BRAF (1) IC50
pIC50: −log10 of the molar value.
recorded_metric: pIC50

# example entries with known answers
CC(=O)Nc1cc(-c2cc(-c3cc(NC(=O)c4ccnc(C)c4)ccc3C)ncn2)ccn1; ≥ 7.00
CNC(=O)c1cc(-c2cncc(-c3cc(C(=O)Nc4cnn(C(C)C)c4)ccc3C)n2)ccn1; 6.30 to 7.00
Cc1ncc(NC(=O)c2ccnc(C3CC3)c2)cc1-c1ccnc(-c2ccnc(NC(=O)C3CC3)c2)c1; ≥ 7.00
Cc1ccc(NC(=O)c2ccnc(C(C)(C)C#N)c2)cc1-c1nccc(-c2ccnc(NC(=O)C3CC3)c2)n1; ≥ 7.00
CC(=O)Nc1cc(-c2cc(-c3cc(NC(=O)c4ccnc(C(F)(F)F)c4)ccc3C)cc(C)n2)ccn1; ≥ 7.00

[ask] Kindly state the measured pIC50 obtained for CNC(=O)c1cc(-c2cc(-c3cc(NC(=O)c4ccnc(C(C)(C)OC)c4)ccc3C)ccn2)ccn1 with B-Raf kinase (SEQ. ID NO: 2) (Homo sapiens (Human)).
[reply] 6.30 to 7.00

[ask] Consider next the molecule Cc1ccc(NC(=O)c2ccnc(C(F)(F)F)c2)cc1-c1cccc(-c2cc(NC(=O)C3CC3)ncn2)c1 in the same way.
[reply] ≥ 7.00

[ask] Cc1ncc(NC(=O)c2ccnc(C(C)(C)C#N)c2)cc1-c1cccc(-c2ccnc(C(N)=O)c2)c1 ?
[reply] ≥ 7.00

[ask] Now the molecule CNC(=O)c1cc(-c2cc(-c3cc(NC(=O)CCC(C)(C)C#N)ccc3C)ccn2)ccn1
[reply] 6.30 to 7.00

[ask] What do we get for CCOc1cc(-c2cc(NC(=O)c3ccnc(C(F)(F)F)c3)c(F)cc2C)cc(-c2ccnc(NC(C)=O)c2)n1 ?
[reply] 6.30 to 7.00
